Entry source: patent US20090123479A1

- tested.on: T1, recombinant human IL-23 (human, UniProt Q9NPF7 20-189; P29460 23-328)
- T1 construct: also called hIL-23
- T1 sequence 1: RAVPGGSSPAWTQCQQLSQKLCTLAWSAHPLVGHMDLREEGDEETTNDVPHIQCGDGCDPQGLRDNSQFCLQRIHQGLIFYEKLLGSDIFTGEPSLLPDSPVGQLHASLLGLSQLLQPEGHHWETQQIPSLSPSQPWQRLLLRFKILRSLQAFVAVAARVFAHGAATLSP
- T1 sequence 2: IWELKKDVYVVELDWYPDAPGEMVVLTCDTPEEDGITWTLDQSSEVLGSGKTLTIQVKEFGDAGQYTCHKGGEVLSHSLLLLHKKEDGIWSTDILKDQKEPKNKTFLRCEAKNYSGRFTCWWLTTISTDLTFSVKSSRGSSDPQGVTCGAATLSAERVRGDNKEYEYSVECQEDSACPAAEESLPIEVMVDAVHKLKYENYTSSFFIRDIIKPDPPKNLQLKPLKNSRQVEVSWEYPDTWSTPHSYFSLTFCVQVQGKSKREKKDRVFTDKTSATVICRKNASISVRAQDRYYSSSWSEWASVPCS
- experiment.summary: SPR (Biacore T100), tissue culture supernatant antibody captured on anti-human IgG, IL-23 analyte
Each record is given condition met if its reported Kd is strictly below 0.07 nM. Records at or above 0.07 nM are given condition not met.

[Q] Answer whether the binder A12.5M4 (antibody, V domains shown) VH: QVQLVQSGAEVKKPGSSVKVSCKASGYTFASYGITWVRQAPGQGLEWMGENYPRSGNTYYNEKFKGRVTITADKSTSTAYMELSSLRSEDTAVYYCARVEFISTVVAPYYYALDYWGQGTLVTVSS VL: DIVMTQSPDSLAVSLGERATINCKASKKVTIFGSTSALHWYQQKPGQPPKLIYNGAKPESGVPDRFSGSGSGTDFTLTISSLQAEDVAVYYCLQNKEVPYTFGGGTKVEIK has Kd strictly less than 0.07 nM
[A] condition met

[Q] Answer whether the binder A3M6 (antibody, human IgG1, kappa, V domains shown, Full length chains) VH: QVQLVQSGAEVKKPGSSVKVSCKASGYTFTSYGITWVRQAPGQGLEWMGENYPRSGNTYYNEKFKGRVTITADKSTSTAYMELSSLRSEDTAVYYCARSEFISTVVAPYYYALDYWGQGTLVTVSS VL: DIVMTQSPDSLAVSLGERATINCKASKKVTIFGSISALHWYQQKPGQPPKLIYQGAKLESGVPDRFSGSGSGTDFTLTISSLQAEDVAVYYCLQNKEVPYTFGGGTKVEIKR has Kd strictly less than 0.07 nM
[A] condition not met

[Q] Answer whether the binder A7M4 (antibody, human IgG1, kappa, V domains shown, Full length chains) VH: QVQLVQSGAEVKKPGSSVKVSCKASGYTFTSYGITWVRQAPGQGLEWMGEDYPRSGNTYYNEKFKGRVTITADKSTSTAYMELSSLRSEDTAVYYCARSEFISTVVAPYYYALDYWGQGTLVTVSS VL: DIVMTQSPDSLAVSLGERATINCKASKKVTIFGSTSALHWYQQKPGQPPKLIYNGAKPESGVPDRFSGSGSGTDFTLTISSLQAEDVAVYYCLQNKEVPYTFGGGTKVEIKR has Kd strictly less than 0.07 nM
[A] condition not met

[Q] Answer whether the binder A12M4 (antibody, V domains shown) VH: QVQLVQSGAEVKKPGSSVKVSCKASGYTFASYGITWVRQAPGQGLEWMGENYPRSGNTYYNEKFKGRVTITADKSTSTAYMELSSLRSEDTAMYYCARVEFISTVVAPYYYALDYWGQGTLVTVSS VL: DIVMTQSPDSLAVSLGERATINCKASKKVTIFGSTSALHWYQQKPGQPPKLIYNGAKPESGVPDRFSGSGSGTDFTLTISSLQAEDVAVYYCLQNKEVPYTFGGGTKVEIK has Kd strictly less than 0.07 nM
[A] condition met

[Q] Answer whether the binder A3M0 (antibody, human IgG1, kappa, V domains shown, Full length chains; also called humanized mAb A3M0) VH: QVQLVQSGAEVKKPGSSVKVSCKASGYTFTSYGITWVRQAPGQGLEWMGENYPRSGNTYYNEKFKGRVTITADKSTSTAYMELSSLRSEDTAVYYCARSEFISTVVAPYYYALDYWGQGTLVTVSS VL: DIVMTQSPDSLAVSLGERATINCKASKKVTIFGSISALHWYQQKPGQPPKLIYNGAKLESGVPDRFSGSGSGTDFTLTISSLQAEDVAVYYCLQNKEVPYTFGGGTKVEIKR has Kd strictly less than 0.07 nM
[A] condition not met

[Q] Answer whether the binder A3M5 (antibody, human IgG1, kappa, V domains shown, Full length chains) VH: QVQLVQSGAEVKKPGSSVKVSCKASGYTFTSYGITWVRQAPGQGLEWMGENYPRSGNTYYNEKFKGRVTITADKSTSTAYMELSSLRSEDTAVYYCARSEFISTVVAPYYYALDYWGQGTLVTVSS VL: DIVMTQSPDSLAVSLGERATINCKASKKVTIFGSISALHWYQQKPGQPPKLIYDGAKLESGVPDRFSGSGSGTDFTLTISSLQAEDVAVYYCLQNKEVPYTFGGGTKVEIKR has Kd strictly less than 0.07 nM
[A] condition not met

[Q] Answer whether the binder A5M4 (antibody, human IgG1, kappa, V domains shown, Full length chains) VH: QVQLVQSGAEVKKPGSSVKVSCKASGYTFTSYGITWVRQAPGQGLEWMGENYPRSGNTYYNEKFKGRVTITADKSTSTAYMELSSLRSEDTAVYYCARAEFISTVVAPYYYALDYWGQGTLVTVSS VL: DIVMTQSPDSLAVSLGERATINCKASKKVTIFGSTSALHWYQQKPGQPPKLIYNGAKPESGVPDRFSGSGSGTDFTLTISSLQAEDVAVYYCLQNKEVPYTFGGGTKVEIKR has Kd strictly less than 0.07 nM
[A] condition met

[Q] Answer whether the binder A10.5M4 (antibody, V domains shown) VH: QVQLVQSGAEVKKPGSSVKVSCKASGYTFASYGITWVRQAPGQGLEWMGENYPRSGNTYYNEKFKGRVTITADKSTSTAYMELSSLRSEDTAVYYCARSEFISTVVAPYYYALDYWGQGTLVTVSS VL: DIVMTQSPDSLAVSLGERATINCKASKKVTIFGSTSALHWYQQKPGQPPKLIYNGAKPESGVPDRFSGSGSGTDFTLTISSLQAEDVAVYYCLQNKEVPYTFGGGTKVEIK has Kd strictly less than 0.07 nM
[A] condition met

[Q] Answer whether the binder A12M3 (antibody, V domains shown) VH: QVQLVQSGAEVKKPGSSVKVSCKASGYTFASYGITWVRQAPGQGLEWMGENYPRSGNTYYNEKFKGRVTITADKSTSTAYMELSSLRSEDTAMYYCARVEFISTVVAPYYYALDYWGQGTLVTVSS VL: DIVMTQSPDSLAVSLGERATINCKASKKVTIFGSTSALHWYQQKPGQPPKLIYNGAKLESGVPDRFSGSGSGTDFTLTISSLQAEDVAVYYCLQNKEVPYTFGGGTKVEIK has Kd strictly less than 0.07 nM
[A] condition not met

[Q] Answer whether the binder A11M3 (antibody, V domains shown) VH: QVQLVQSGAEVKKPGSSVKVSCKASGYTFASYGITWVRQAPGQGLEWMGENYPRSGNTYYNEKFKGRVTITADKSTSTAYMELSSLRSEDTAMYYCARAEFISTVVAPYYYALDYWGQGTLVTVSS VL: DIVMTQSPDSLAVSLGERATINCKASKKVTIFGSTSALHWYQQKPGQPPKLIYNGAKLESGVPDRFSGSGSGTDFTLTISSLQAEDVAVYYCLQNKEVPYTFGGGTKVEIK has Kd strictly less than 0.07 nM
[A] condition met
